# System: human factor Xa (Homo sapiens)
# Construct: purchased Enzyme Research Laboratories
# Test: Determination of Factor Xa IC50 (cleavage of chromogenic substrate S2765)
# Format: biochemical
# Conditions used: 3 pM factor Xa; compound at 4 uM
Measure name: Fxa 3 PM % Inhibition at 4 uM
Please state the number and follow it with the unit.

Below, each entry is followed by its recorded Fxa 3 PM % Inhibition at 4 uM result.
INSERT INTO results (compound, measure_name, result) VALUES
  ('N#Cc1ccc(NC(=O)N2CCCC2C(=O)Nc2ccc(-c3ccccc3S(N)(=O)=O)cc2F)cc1 (centres unmarked)', 'Fxa 3 PM % Inhibition at 4 uM', '51.86%'),
  ('NS(=O)(=O)c1ccccc1-c1ccc(NC(=O)C2CCCN2C(=O)Nc2ccc(C(F)(F)F)cc2)c(F)c1 (centres unmarked)', 'Fxa 3 PM % Inhibition at 4 uM', '25.1%'),
  ('NS(=O)(=O)c1ccccc1-c1ccc(NC(=O)C2CCCN2C(=O)Nc2cccc(C(F)(F)F)c2)c(F)c1 (centres unmarked)', 'Fxa 3 PM % Inhibition at 4 uM', '21.61%'),
  ('Cc1ccc(Cl)cc1NC(=O)N1CCCC1C(=O)Nc1ccc(-c2ccccc2S(N)(=O)=O)cc1F (centres unmarked)', 'Fxa 3 PM % Inhibition at 4 uM', '19.84%'),
  ('NS(=O)(=O)c1ccccc1-c1ccc(NC(=O)C2CCCN2C(=O)Nc2ccccc2F)c(F)c1 (centres unmarked)', 'Fxa 3 PM % Inhibition at 4 uM', '37.21%'),
  ('NS(=O)(=O)c1ccccc1-c1ccc(NC(=O)C2CCCN2C(=O)Nc2ccc(Cl)c(Cl)c2)c(F)c1 (centres unmarked)', 'Fxa 3 PM % Inhibition at 4 uM', '41.71%');

Sure, the documented Fxa 3 PM % Inhibition at 4 uM for CC(C)c1ccc(NC(=O)N2CCCC2C(=O)Nc2ccc(-c3ccccc3S(N)(=O)=O)cc2F)cc1 (centres unmarked) is 19.22%

Sure, the documented Fxa 3 PM % Inhibition at 4 uM for COc1cccc(NC(=O)N2CCCC2C(=O)Nc2ccc(-c3ccccc3S(N)(=O)=O)cc2F)c1 (centres unmarked) is 36.21%

Sure, the documented Fxa 3 PM % Inhibition at 4 uM for CCc1ccc(NC(=O)N2CCCC2C(=O)Nc2ccc(-c3ccccc3S(N)(=O)=O)cc2F)cc1 (centres unmarked) is 38.14%

Sure, the documented Fxa 3 PM % Inhibition at 4 uM for CN(C)c1ccc(NC(=O)N2CCCC2C(=O)Nc2ccc(-c3ccccc3S(N)(=O)=O)cc2F)cc1 (centres unmarked) is 19.93%

###

Recorded inhibition at 1 µM, one value per entry.
# System: human factor Xa (Homo sapiens)
# Construct: purchased Enzyme Research Laboratories
# Test: Determination of Factor Xa IC50 (cleavage of chromogenic substrate S2765)
# Format: biochemical
# Conditions used: 1 h, read-out: % at 1 uM (printed in column FXA 30 pM IC50); 30 pM factor Xa; compound at 1 uM
Express your answer in %, writing the number without its unit.

INSERT INTO results (molecular_string, measure_name, uom, quantitative_readout) VALUES
  ('O=C(Nc1ccc(NC(=O)[C@H]2C[C@@H](O)CN2C(=O)Nc2ccc(Cl)cc2)cc1)C1CCCC1', 'inhibition at 1 µM', '%', 36),
  ('CO[C@@H]1C[C@H](C(=O)Nc2ccc(N3CCC3=O)cc2F)N(C(=O)Nc2ccc(Cl)cn2)C1', 'inhibition at 1 µM', '%', 54),
  ('O=C(Nc1ccc(-n2ccnn2)cc1)[C@H]1C[C@@H](O)CN1C(=O)Nc1ccc(Cl)cc1', 'inhibition at 1 µM', '%', 26);

Sure, the documented inhibition at 1 µM for "O=C(Nc1ccc(-c2cncnc2)cc1)[C@H]1C[C@@H](O)CN1C(=O)Nc1ccc(Cl)cc1" is 32

###

# System: human factor Xa (Homo sapiens, UniProt P00742)
# Construct: purchased Enzyme Research Laboratories
# Sequence (P00742 235-488 limits assumed): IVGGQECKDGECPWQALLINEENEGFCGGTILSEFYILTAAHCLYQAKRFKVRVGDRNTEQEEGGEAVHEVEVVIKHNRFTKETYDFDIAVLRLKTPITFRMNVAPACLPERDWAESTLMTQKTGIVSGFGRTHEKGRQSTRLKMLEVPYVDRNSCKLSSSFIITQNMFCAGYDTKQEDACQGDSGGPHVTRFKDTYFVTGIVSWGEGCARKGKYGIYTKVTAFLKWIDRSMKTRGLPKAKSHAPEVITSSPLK
# Sequence (P00742 41-179 partner limits assumed): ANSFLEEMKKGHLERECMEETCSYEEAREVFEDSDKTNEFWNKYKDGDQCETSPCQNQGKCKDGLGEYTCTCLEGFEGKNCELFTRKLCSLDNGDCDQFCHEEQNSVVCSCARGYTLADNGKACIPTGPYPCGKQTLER
# Test: Determination of Factor Xa IC50 (cleavage of chromogenic substrate S2765)
# Type: biochemical
# Conditions used: 3 pM factor Xa; compound at 4 uM
Recorded Fxa 3 PM % Inhibition at 4 uM, one value per entry.
Express your answer in %, writing the number without its unit.

Below, each entry is followed by its recorded Fxa 3 PM % Inhibition at 4 uM result.
INSERT INTO assay_data (compound, uom, quantitative_readout) VALUES
  ('Cc1cc(Cl)ccc1NC(=O)N1CCCC1C(=O)Nc1ccc(-c2ccccc2S(N)(=O)=O)cc1F (stereo not shown)', '%', 38.88),
  ('CC(=O)c1cccc(NC(=O)N2CCCC2C(=O)Nc2ccc(-c3ccccc3S(N)(=O)=O)cc2F)c1 (stereo not shown)', '%', 21.04),
  ('NS(=O)(=O)c1ccccc1-c1ccc(NC(=O)C2CCCN2C(=O)Nc2ccc(F)c(Cl)c2)c(F)c1 (stereo not shown)', '%', 41.07);

Observed Fxa 3 PM % Inhibition at 4 uM, human factor Xa (Homo sapiens, UniProt P00742), NS(=O)(=O)c1ccccc1-c1ccc(NC(=O)C2CCCN2C(=O)Nc2cccc(Cl)c2)c(F)c1 (stereo not shown) : 55.97
